# Assay explanation: yeast display, Sf9 membrane polyspecificity reagent, FACS + sequencing; frameworks hold sequencing errors
Property name: polyreactivity (PSR sort gate)

# annotated cases, reported polyreactivity (PSR sort gate) shown
QVQLVESGGGLVQAGGSLRLSCAASGSISVANAMGWYRQAPGKERELVAAITDSGDDTYYADSVKGRFTISRDNAKNTVYLQMNSLKPEDTAVYYCAVEAWSVPPYDYWGQGTQVTVSS | low polyreactivity
QVQLVESGGGLVQAGGSLRLSCAASGSIFGDYDMGWYRQAPGKERELVAAITSGGSTDYADSVKGRFTISRDNAKNTVYLQMNRLKPEDTAVYYCAAEDKCGYFLFPFWLELDYWGQGTQVTVSS | low polyreactivity
QVQLVESGGGLVQAGGSLRLSCAASGRTFGIYAMGWYRQAPGKERELVAAISRGGNTYADSVKGRFTISRDNAKNSVYLQMNSLKPEDTAVYYCAADRRYRPGDYWGQGTQVTVSS | high polyreactivity
QVQLVESGGGLFQAGGSLRLSCAASGRTFCFYTMGWYRQAPGKASELVAAISSGGSTNYADSVKGRFTISRDNAKNTVYLQMNSLKPEDTAVYYCNARFPVCPSEDAVWYYPKFDYWGQGTQVTVSW | low polyreactivity
QVQLVESGGGLVQAGGSLRLSCAASGSIFLINAMGWYRPAPGKERELVAAITWSGGRTYYADSVKGRFTISRDNAKNTVYLQMNSLKPEDTAVYYCATRKRRSRPPTYDYWGQGTQVTVSS | high polyreactivity

Now for another entry.
Task: Entry QVQLVESGGGLVQAGGSLRLRCAASGSTFPYNAMGWYRQAPGKERELVAAITSAVGTNYADSVKGRVTISRDNAKNTVYLQMNSLKREDTAVYYCAARYIETPLTVLSLMDYWGQGTQVTVSS has what polyreactivity (PSR sort gate)?
Output: low polyreactivity

====

# Assay explanation: yeast display, Sf9 membrane polyspecificity reagent, FACS + sequencing; frameworks hold sequencing errors
Property name: polyreactivity (PSR sort gate)

QVQLVESGGGLVQAGGSLRLSCAASGSIFGPNAMGWYRQAPGKERELVAAITLSGGSTYYADSVKGRFTISRDNAKNTVYLQMNSLKPEDTAVYYCNADLLPADAPLWVTGGDYWGQGTQVTVSS | low polyreactivity
QVQLQESGGGLVQAGGSLRLGCAASGNISDAGYMGWYRQAPGKEREFVAAIAAGSNTNYADSVKGRFTISRDNAKNTVYLQMNSLKPEVTAVFYCAVACYARVQYEYWGQGTQVTVNS | low polyreactivity

====

# Assay explanation: yeast display, Sf9 membrane polyspecificity reagent, FACS + sequencing; frameworks hold sequencing errors
Property name: polyreactivity (PSR sort gate)

# annotated cases, reported polyreactivity (PSR sort gate) shown
QVQLVESGGGLVQAGGSLRLSCAASGSIFYVYAMGWYSQARGKEMELVAAISSSAGSTYYADSVKVRFTISRDNAKTTVYLQINSLIPEDTAVDYCAAKVRYSLRKYYYWGQGTQVTVSS | high polyreactivity
QVQLVESGGGLVQAGGSLRLSCAASGSIFYVYAMGWYRQAPGKERELVAAISSSAGSTYYADSVKGRFTISRDNAKNTVYLQMNSLKPEDTAVYYCAAKVRYSLRKYYYWGQGTQVTVSS | high polyreactivity
QVQLVESGGGLVQAGVSLRLSCAASGRTFEDKAMGSDRQAPGKERELVAAISSDGSTNYADSVKGRFTISRDNAKYTVYLQKYSLKPVDTAVYYCNSTVYWPYDWSTSDYWGQGTQVTVSS | low polyreactivity
QVQLVESGGGLVQAGGILRLSCAASGFTFTYYAMGWYIQAPGKERELVAAITRDDSTNYADSVKGRFTISRDNAKNTVYLQMNSLKPEDTAVYYCAADSWYPSYGYWGQGTQVTVSS | low polyreactivity

Task: Entry QVQLVESGGGLVQAGGSLRLSCAASGSTFDTNAMGWYRQAPGKERELVATITSIGGSTYADSVKGRFTISRDNAKNTVYLQMNSLKPEDNAVYYCATDYVEIDYYYDYWGQGTQVTVSS has what polyreactivity (PSR sort gate)?
Output: low polyreactivity

Task: Entry QVQLVESGGGLVQAGGSLRLSCAASGIIFVYYVMGWYRQAPGKERELVAAISWDGGSTYYADSVKGRFTISRDNAKNTVYLQMNSLKPEDTAVYYCAARYKGNPDRYGYWGLGTQVTVSS has what polyreactivity (PSR sort gate)?
Output: high polyreactivity

Task: Entry QLQLVESGGGLVQAGGRLRLSCAASGGIFQTNAMGWYRQAPGKERELVAAISRSAGRTYYADSVKGRFTISRDNAKNTVYLQMTSLKPEDTAVYYCNALRGRFRFDYWGQGTQVTVSS has what polyreactivity (PSR sort gate)?
Output: high polyreactivity

Task: Entry QVQLVESGGGLVQAGGSLRLSCAASGITSPAYAMGWYRQAPGKEREFVAAISSSGVSTYYADSVKGRFTISRDNAKNTVYLQMNRLKPEDTAVYYCNTVSWPLSSKYYYWGQGTQVTVSS has what polyreactivity (PSR sort gate)?
Output: high polyreactivity

Task: Entry QVQLVESGGGLVQAGGSLRISCAASGITLYFYAMGWYRQAPGKERELVAGISGSVGSTHYADSVKGRFSISRDNAKNTVYLQMNSLKPEDTAVYYCAARALTWSRVPRYNYWGQGTQVTVSS has what polyreactivity (PSR sort gate)?
Output: high polyreactivity

Task: Entry QVQLVESGGGLVQAGGSLRLSCAASGRTFGQYALGGSRKAPGKERELVATITRTARTNYADSVKGRFTISRDNAKNTVYLQMNSLKPEDTAVYYCAKGWPAIYGTYDYCGQGTQVTVSS has what polyreactivity (PSR sort gate)?
Output: high polyreactivity

Task: Entry QVQLVESGGGLVQAGGSLRLSCAASGSTLYGYAMGWSRQAPGKERELVAAISDSGGNTYYADSVKGRFTISRDNAKNTGYLQMNSLKPEDTAVYYCAAEDIVFPYDYWGQGTQVTVSS has what polyreactivity (PSR sort gate)?
Output: low polyreactivity

Task: Entry QVQLVESGGGLVQAGGRLRLSCAASGSTFGINAMGWYRQAPGKERELVAAITSTGRTYYADSVKGRFTISRDNAKNTVYLQMNSLKPEDTAVYYCAAVWRYKGLLLPSYYYWGQGTQVTVSS has what polyreactivity (PSR sort gate)?
Output: high polyreactivity

Task: Entry QVQLVESGGGLVQAGGSLRLSCAASGSIFRYYTMGWDRQAPGKERELVAAISWSGGRTYYADSVKGRFTISRDNAKNTVYLQMNSLKPEDTAVYYCAAVRPYYYPLPTVPNLPYDYWGQGTQVTVSS has what polyreactivity (PSR sort gate)?
Output: high polyreactivity

====

# Assay explanation: yeast display, Sf9 membrane polyspecificity reagent, FACS + sequencing; frameworks hold sequencing errors
Property name: polyreactivity (PSR sort gate)

# annotated cases, reported polyreactivity (PSR sort gate) shown
QVQLVESGGGLVQAGGSLRLSCAASGRIFKRYTLGWYRPAPAKERELVAAITKRADRTNYADSVKGRFTISRDNAKNTVYLQMNSLKPEDTAVYDCNAEGQNDHPSNGYISYKYDYWGQGTQVTVSS | low polyreactivity
QVQLVESGGRLVQAGGSLRLSCAASGRTFVTNAMGWYRQAPGQERELVAAISSNGGSTYYADSVKGRFTISRDNAKNTVYLQMNSLKPEDTAVYYCNAEGQPLYVSWHDHRYIYGFDYWGQGTQVTVSS | low polyreactivity
QVQLVESGGGLVQAGGSLRLSCAASGRTFSQNAMGWYRQAPGKERELVAAIRRGGSTNYADSVKGRFTISRDNEKNTVYLQMHSLKPEDTAVYYCAADLRRNGWGFDYWGQGTQVTVSS | high polyreactivity
QVQLVESGGGLVQAGGSLRLSCAPSGITFLANTMGGYRQAPGKERELVATITSSGGSTYYADSVKGRFTISRDNAKNTVYLQMNSLKPEDTAGYYCADSDLRYRGNYVYLPSEYWGQGSQVTVSS | low polyreactivity
QVQLVESGGGLVQAGGSLRLSCAASGRTFYRYVMGWYRQAPGKERALVAAITWSGGSTYYADSVKGRFTISRDNAKNTVYLQMNSLKPEDTAVYYCAKGLYDASRRYYYWGQGTQVTVSS | high polyreactivity

Task: Entry QVQLVESGGGLVQAGGSLRLSCAASGRIFYSNTMGWYRQAPGKERELVAAITWRGGRTHYADSVKGRLTISRDNAKNPVYLQMNSLTPEDTAVYYCAARYIPIQYPSYRTWGGYSWGQGTQVTVSS has what polyreactivity (PSR sort gate)?
Output: high polyreactivity

Task: Entry QVQLVESGGGLVQAGGSLRLSCAASGRTFNTNAMGWYRQAPGKERELVAAISGGGSTYADSVKGRFTISRDNAKNTVYLQMNSLKPEDTAVYYCKAYPPYLYATYDYWGQGTQVTVSS has what polyreactivity (PSR sort gate)?
Output: low polyreactivity

Task: Entry QVQLVESGGGLVQAGGSLRLSCAASGRIFGVNAMGWYRQAPGKERELVAAISRSGGSTYYADSVKGRFTISRDNAKNTVYLQMNSRKPEDTAVYYCATDHFYYRQKYWAYYYWGQGTQVTVSS has what polyreactivity (PSR sort gate)?
Output: high polyreactivity
